The entries below come with measured TGI values attached.
Test system: HL-60(TB) leukemia
Test: NCI tumour cell line growth inhibition, 48 h
measuredQuantity: TGI

molecule	subjectOfTest	experimentalResult
COC(=O)c1cnn2c1ccc1ccccc12	HL-60(TB) leukemia	> 100 µM
COc1ccc(-c2cc(-c3cc(C)ccc3O)[nH]c(=O)n2)cc1	HL-60(TB) leukemia	> 100 µM
C=C(Br)C(C)(Br)CCC(Br)C(C)(C)Br (stereo not given)	HL-60(TB) leukemia	62.3 µM
COc1ccc2nc3cc([N+](=O)[O-])ccc3c(Nc3ccc(S(=O)(=O)N=C(N)N)cc3)c2c1	HL-60(TB) leukemia	31.3 µM
NC(=O)CCC(NC(=O)Cc1ccccc1)C(=O)O (stereo not given) (tested in a mixture with another compound)	HL-60(TB) leukemia	> 8130 µM
CCOC(=O)C(C(=O)OCC)=C1N[C@H](C(=O)OCC)CS1	HL-60(TB) leukemia	> 100 µM
O=C(Nc1ccc(OCc2nnc(-c3ccccc3)o2)c(F)c1)Nc1ccc(Cl)c(C(F)(F)F)c1	HL-60(TB) leukemia	4.61 µM
Cc1c(-c2nnc(-c3ccc(F)cc3)o2)nnn1-c1ccnc2c(C(F)(F)F)cccc12	HL-60(TB) leukemia	> 100 µM
O=C1/C(=C/c2ccc(Cl)cc2)N=C(c2ccccc2)N1c1nc2c(Cl)cc(Cl)cc2s1	HL-60(TB) leukemia	43.1 µM
CCOC(=O)c1nnsc1NN=C(C)C	HL-60(TB) leukemia	> 100 µM
